# System Tested: Aβ42 (Homo sapiens, UniProt P05067)
# Sequence (P05067 672-713): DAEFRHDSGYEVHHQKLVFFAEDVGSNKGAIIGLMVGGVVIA
# Experiment: Th-T (thioflavin-T) assay of Aβ42 aggregation
# Format: biochemical
# Experimental Setup: head suffix _20 (concentration 20); reading M70
Param threshold (2) applies to Th-T fluorescence of Aβ42 (sheet Fig. 7a), mean of three wells; output 1.0 when value >= threshold, 0.0 when value < threshold.

Record excerpt, results attached:
C=C1CC[C@@H]2[C@](C)(CC[C@H]3O[C@H](C=C(C)C)C[C@@]23C)[C@@H]1Cc1c(OC)oc(CO)c(C(=O)OC)c1=O ... 0.0
C=C1CCC2C(C)(CCC=C(C)C)C(O)CCC2(C)C1Cc1c(OC)oc(CO)c(C)c1=O (centres unmarked) ... 1.0
C=C1CC[C@@H]2[C@](C)(CC[C@H]3O[C@H](C=C(C)C)C[C@@]23C)[C@@H]1Cc1c(OC)oc(CO)c(C)c1=O ... 1.0

Continue with the molecule presented below.
-- ask Is it the case that C=C1CCC2C(C)(CCC=C(C)C)C(O)CCC2(C)C1Cc1c(OC)oc(CO)c(C(=O)OC)c1=O (centres unmarked) has Th-T fluorescence of Aβ42 (sheet Fig. 7a), mean of three wells reaching or exceeding 2?
-- reply 0.0
